Data provenance is ChEMBL document CHEMBL1145498.

Examples of compounds with documented ΔTm follow.
studyTarget: Ribosomal protein S6 kinase alpha-3 (Homo sapiens) (UniProt P51812)
Sequence (P51812 whole entry): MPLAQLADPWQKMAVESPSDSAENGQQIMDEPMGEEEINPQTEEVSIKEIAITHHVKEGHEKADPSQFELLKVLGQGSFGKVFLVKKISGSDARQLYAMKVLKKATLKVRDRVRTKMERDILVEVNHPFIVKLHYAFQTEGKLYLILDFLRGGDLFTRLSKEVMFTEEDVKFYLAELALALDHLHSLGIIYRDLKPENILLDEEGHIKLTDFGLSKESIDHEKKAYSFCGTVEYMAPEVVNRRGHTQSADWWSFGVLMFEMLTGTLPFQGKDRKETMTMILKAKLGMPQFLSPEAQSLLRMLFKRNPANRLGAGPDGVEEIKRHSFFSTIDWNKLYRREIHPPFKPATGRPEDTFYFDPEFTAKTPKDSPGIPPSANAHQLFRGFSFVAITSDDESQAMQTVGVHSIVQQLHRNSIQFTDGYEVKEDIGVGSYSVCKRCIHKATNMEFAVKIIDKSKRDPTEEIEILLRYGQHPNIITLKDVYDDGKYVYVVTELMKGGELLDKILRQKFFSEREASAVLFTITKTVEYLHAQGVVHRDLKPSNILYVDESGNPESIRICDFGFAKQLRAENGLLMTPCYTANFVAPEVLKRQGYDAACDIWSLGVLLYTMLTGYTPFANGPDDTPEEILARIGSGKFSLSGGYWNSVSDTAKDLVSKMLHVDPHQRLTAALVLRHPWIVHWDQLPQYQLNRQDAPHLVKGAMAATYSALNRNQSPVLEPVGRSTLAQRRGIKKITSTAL

- compound: "O=C1NC(=O)C(c2cn(CCCn3ccnc3)c3ccccc23)=C1Nc1ccccc1"
  ΔTm, °C: 6.3
- compound: "O=C1C=C2C(=Nc3c2c2c(c4c3=NC3=C4CCC=C3)C=NC=2)CC1"
  ΔTm, °C: 5.1
- compound: "COC(=O)[C@]1(O)C[C@@H]2O[C@@]1(C)n1c3ccccc3c3c4c(c5c6ccccc6n2c5c31)C(=O)NC4 (single isomer, unassigned)"
  ΔTm, °C: 5.1
- compound: "CCOc1ccc(/C=C2/SC(=O)N(CCN)C2=O)cc1"
  ΔTm, °C: 0
- compound: "COc1ccc(CNc2nc(N(CCO)CCO)nc3c2ncn3C(C)C)cc1"
  ΔTm, °C: 1.7

* * *

studyTarget: Ribosomal protein S6 kinase alpha-3 (Homo sapiens)
Heads up, the class ranges for ΔTm are bin 0: < 0.3 °C; bin 1: ≥ 0.3 °C and < 2 °C; bin 2: ≥ 2 °C

- compound: "COc1cc(C[C@H]2C(=O)OC[C@@H]2Cc2ccc(OC)c(OC)c2)ccc1O"
  assignedCategory: "bin 0"
- compound: "CC(C)n1cnc2/c(=N/c3cccc(Cl)c3)nc(NCCO)[nH]c21"
  assignedCategory: "bin 2"
- compound: "COc1cc2c(cc1OC)-c1n[nH]c(Nc3cccc(F)c3)c1C2"
  assignedCategory: "bin 2"
- compound: "Cc1cncc2cccc(S(=O)(=O)N3CCCNC[C@@H]3C)c12"
  assignedCategory: "bin 2"
- compound: "O=C1Nc2ccccc2/C1=C/c1cnc[nH]1"
  assignedCategory: "bin 1"
- compound: "CC(C)c1nn(-c2c(Cl)cccc2Cl)c2nc(Cc3ccc(OCCO)cc3)[nH]c(=O)c12"
  assignedCategory: "bin 2"
- compound: "Nc1nc(Nc2ccc(S(N)(=O)=O)cc2)nn1C(=S)Nc1c(F)cccc1F"
  assignedCategory: "bin 2"
- compound: "O=c1c(-c2ccc(F)cc2)c(-c2ccncc2)[nH]n1-c1ccc(Cl)cc1"
  assignedCategory: "bin 0"
- compound: "CC(C)n1cnc2c(NCc3ccccc3O)nc(NCCCO)nc21"
  assignedCategory: "bin 1"
- compound: "CCOc1cc2ncnc(Nc3cccc(Br)c3)c2cc1OCC"
  assignedCategory: "bin 0"
- compound: "Cc1cc2ncc(-c3ccccc3)nc2cc1C"
  assignedCategory: "bin 0"
- compound: "Nc1cc2ncnc(Nc3cccc(Br)c3)c2cc1N"
  assignedCategory: "bin 1"
- compound: "O=S(=O)(NCCNC/C=C/c1ccc(Br)cc1)c1cccc2cnccc12"
  assignedCategory: "bin 1"
- compound: "C[S+]([O-])c1ccc(CSc2nc(-c3ccc(F)cc3)c(-c3ccncc3)[nH]2)cc1 (stereo unspecified)"
  assignedCategory: "bin 0"
- compound: "COc1cccc(-c2cc(=O)c3ccccc3o2)c1N"
  assignedCategory: "bin 0"
- compound: "CC(C)[C@H](CO)Nc1nc(Nc2cc(N)cc(Cl)c2)c2ncn(C(C)C)c2n1"
  assignedCategory: "bin 2"
- compound: "N#C/C(=C\\c1ccc(O)c(O)c1)C(=O)NCc1ccccc1"
  assignedCategory: "bin 1"
- compound: "NS(=O)(=O)c1ccc(Nc2nc(OCC3CCCCC3)c3nc[nH]c3n2)cc1"
  assignedCategory: "bin 1"
- compound: "CCCNC(=O)Nc1ccc(Oc2ncnc3cc(OC)c(OC)cc23)cc1Cl"
  assignedCategory: "bin 2"
- compound: "O=C(O)Cc1ccc(O)c([N+](=O)[O-])c1"
  assignedCategory: "bin 1"
